# Test system: Noggin (protein binding on small-molecule microarray)
# run description: small molecules binding Noggin protein – biochemical, 635/667 nm fluorescence, primary screen (AID 1095);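 further: score merges 667 nm feature fluorescence with signal to noise over triplicate slides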
# test parameters: 635 nm fluorescence, higher = more signal
measurement label: composite z-score

compound=CC#CCO[Si](C#Cc1ccccc1)(C(C)C)C(C)C subject_of_test="Noggin (protein binding on small-molecule microarray)" measurement_label="composite z-score" recorded_measurement=0.709
compound=[N-]=[N+]=Nc1ccccc1[C@@H]1OC(c2ccc(OCCCO)cc2)=N[C@]1(Cc1ccccc1)C(=O)N1CCCCC1 subject_of_test="Noggin (protein binding on small-molecule microarray)" measurement_label="composite z-score" recorded_measurement=0.847
compound=COc1ccc([Si](C)(C)[C@H]2[C@H](CC(=O)N(CCO)Cc3ccccc3)O[C@@]3(C(=O)N(C)c4c(Br)cc(C)cc43)[C@@H]2C)cc1 subject_of_test="Noggin (protein binding on small-molecule microarray)" measurement_label="composite z-score" recorded_measurement=1.79
compound=CCOC(=O)C1=CC[C@@H](c2ccccc2F)N(S(=O)(=O)c2ccc(C)cc2)[C@H]1c1ccccc1 subject_of_test="Noggin (protein binding on small-molecule microarray)" measurement_label="composite z-score" recorded_measurement=0.63
compound=COCCOC(=O)N1C(=O)[C@@]2(c3cc(C#CC4=CCCCC4)ccc31)[C@H](c1ccccc1OCCO)N1[C@H](c3ccccc3)[C@H](c3ccccc3)OC(=O)[C@H]1[C@@H]2C(=O)N1CCN(c2ncccn2)CC1 subject_of_test="Noggin (protein binding on small-molecule microarray)" measurement_label="composite z-score" recorded_measurement=0.729
compound="CCN(CC)c1ccc(N2CC=CC34O[C@@H]5/C=C\\CCCOC(=O)C5[C@H]3C(=O)N(C(C)CO)[C@@H]4C2=O)cc1 (stereo partly drawn)" subject_of_test="Noggin (protein binding on small-molecule microarray)" measurement_label="composite z-score" recorded_measurement=-0.045
compound=[N-]=[N+]=Nc1ccccc1C[C@@]1(C(N)=O)N=C(c2ccc(OCCCO)cc2)O[C@@H]1c1ccccc1N=[N+]=[N-] subject_of_test="Noggin (protein binding on small-molecule microarray)" measurement_label="composite z-score" recorded_measurement=-0.467
compound=O=C(NCCN1CCOCC1)[C@@H]1c2ccccc2C(=O)N(C2Cc3ccccc3C2)[C@H]1c1ccc(CO)cc1 subject_of_test="Noggin (protein binding on small-molecule microarray)" measurement_label="composite z-score" recorded_measurement=-0.398

---

# run description: basal CRE-LacZ reporter activity in PC12 – cell-based, unstimulated, primary screen (AID 1145)
# test parameters: no forskolin, luminescence, 4.5 h, higher = more signal, called active from +8 up or from −8 down
z-score below -0.2 gives 0.0; z-score at or above it gives 1.0.

compound=CCCCNC(=O)c1ccc(C#CC(C)(C)C)c(OC(C)=O)c1 class_label=1.0
compound=C=CCNC(=O)[C@H]1[C@@H]2C(=O)O[C@@H](c3ccccc3)[C@@H](c3ccccc3)N2[C@@H](c2ccccc2OCCO)[C@]12C(=O)N(C(=O)OCCOC)c1ccc(C#CC3(O)CCCCCC3)cc12 class_label=0.0
compound=O=C1C[C@]2(c3ccc([N+](=O)[O-])cc3)C(=O)N(C3CC3)c3cc(CO)ccc3[C@H]2N1CC12CC3CC(CC(C3)C1)C2 class_label=1.0
compound=CCOC(=O)C1=C[C@@H](c2ccccc2)N(S(=O)(=O)c2ccc(C)cc2)[C@H]1c1ccc(OC)cc1 class_label=0.0
compound="CCCCCCCCCCC(O)C1C=CC2C(=O)N(c3ccccc3)C(=O)C2N1Nc1ccc(C#N)cc1 (configuration not stated)" class_label=0.0
compound="CC1CC/C=C\\[C@H]2OC34C=CCN(Cc5ccccc5)C(=O)[C@H]3N(C(CO)C(C)C)C(=O)[C@@H]4C2C(=O)O1 (some centres not stated)" class_label=1.0
compound=CCOC(=O)C[C@H]1[C@H](OC(=O)c2ccc(-c3ccccc3)cc2)[C@@H](NC(=O)CC(C)C)c2cc(OCCCO)ccc2N1C(=O)c1ccc2ccccc2n1 class_label=1.0

---

# run description: JC-1 mitochondrial signal, unstimulated HepG2 cells – cell-based, JC-1 fluorescence, 24 h, 100 nL compound, profiling panel (AID 1167); further: test concentration not given here
# test parameters: HepG2 mitochondrial potential, higher = more signal
measurement label: z-score

molecule="COc1cc(OC)c(C(O)C2C=CC3C(=O)N(Cc4ccccc4)C(=O)C3N2n2cnnc2)cc1Br (stereo not given)" recorded_measurement=-0.769
molecule="CCCCC(CC)C(O)C1C=CC2C(=O)N(c3ccccc3)C(=O)C2N1Nc1ccccc1F (stereo not given)" recorded_measurement=-0.639
molecule=COC(=O)[C@@]1(Cc2ccc(F)cc2)[C@H]2c3cc(C(=O)N(C)C)n(CCc4ccc(OC)c(Br)c4)c3C[C@H]2CN1C(=O)c1ccccc1 recorded_measurement=-1.68
molecule="COc1cc(NN2C(C(O)c3ccco3)C=CC3C(=O)N(C)C(=O)C32)cc(OC)c1OC (stereo not given)" recorded_measurement=-1.01
molecule="CCCC1(C(=O)OC)C=C2C(=C(C)C(=O)C2C)CN1 (stereo not given)" recorded_measurement=-1.96

---

Each entry below carries its reported composite z-score.
# Test system: Sonic hedgehog protein (Shh)
# run description: Sonic hedgehog microarray binding compounds – biochemical, small-molecule microarray, 635/667 nm fluorescence, primary screen (AID 1151);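 further: Shh protein binding to compounds spotted on small-molecule microarray slides; score combines spot fluorescence intensity with signal-to-noise across triplicate slides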
# test parameters: 635 nm fluorescence, higher = more signal
measurement label: composite z-score

compound=C=CCNC(=O)[C@@H]1[C@H]2C(=O)O[C@H](c3ccccc3)[C@H](c3ccccc3)N2[C@H](c2ccccc2OCCO)[C@@]12C(=O)Nc1ccc(C#CCC(C(=O)OC)C(=O)OC)cc12 recorded_measurement=0.499
compound=CCCN1C(=O)[C@@]2(Cc3ccccc31)N=C(c1ccc(OCCCO)cc1)O[C@H]2c1ccccc1 recorded_measurement=1.01
compound=COc1ccc(C(=O)Nc2ccc(CN3C(=O)[C@]4(O[C@H](CC(=O)N5Cc6ccccc6C[C@H]5CO)[C@@H]([Si](C)(C)c5ccc(OC)cc5)[C@@H]4C)c4ccccc43)cc2)cc1 recorded_measurement=2.04
compound=O=C(NCCN1CCOCC1)[C@@H]1c2ccccc2C(=O)N(Cc2ccccc2Cl)[C@H]1c1ccc(CO)cc1 recorded_measurement=-1.07
compound=CCOC(=O)C[C@H]1[C@H](OC(=O)Cc2ccc3c(c2)OCO3)[C@@H](NC(=O)c2ccc3ccccc3n2)c2cc(OCCCO)ccc2N1C(=O)c1ccc2ccccc2n1 recorded_measurement=0.301
compound=C=C(C(=O)CC[C@H](OC(=O)c1ccccc1-c1ccccc1C(=O)O)c1cccc(OCCO)c1)C(C)C recorded_measurement=0.432
compound=Cc1ccc(S[C@]2(C(=O)O)CC(=O)N(C3CCCCC3)[C@@H]2c2ccc(CO)cc2I)cc1 recorded_measurement=-0.342
compound=COC(=O)[C@@]1(Cc2ccc(F)cc2)[C@H]2c3cc(C(=O)N4CCCC4)n(Cc4ccc(C)c(F)c4F)c3C[C@H]2CN1C(=O)c1ccccc1 recorded_measurement=-0.472
compound=CCOC(=O)C1=CC[C@@H](c2ccccc2)N(S(=O)(=O)c2ccc(C)cc2)[C@H]1c1ccccc1 recorded_measurement=-0.627
compound=O[C@@H](Cc1ccccc1)[C@@H](/C=C/C1CC1)N(CC#Cc1ccccc1)Cc1ccccc1Br recorded_measurement=-1.5
compound=Cc1ccc(N2C(=O)c3ccccc3[C@@H](C(=O)NCCCN(C)C)[C@@H]2c2ccc(CO)cc2)nc1 recorded_measurement=0.0381
compound="CC(C)N1CC=CC23O[C@@H]4C=CCCOC(=O)C4[C@H]2C(=O)N(CCCO)[C@@H]3C1=O (some centres undefined)" recorded_measurement=0.403
compound=C=CCN1C(=O)[C@]2(CCS(=O)(=O)c3ccccc3)N=C(c3ccc(OCCCO)cc3)O[C@@H]2c2ccccc21 recorded_measurement=1.65
compound="C[C@@H]1NC(=O)[C@@H](Cc2ccccc2)NC(=O)[C@@]23C(=O)N[C@@H](Cc4ccccc4)C2[C@H](C)[C@@]2(C)O[C@H]2C3/C=C/C/C=C\\CNC1=O (some centres undefined)" recorded_measurement=1.45

---

# run description: probe aNOTCH3 binding on compound microarray – biochemical, small-molecule microarray, 635/667 nm fluorescence, primary screen (AID 1120);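 further: probe is a biotin-tagged antibody raised against NOTCH3 rather than NOTCH3 protein; score merges spot fluorescence near 667 nm with spot signal to noise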
# test parameters: higher = more signal
composite z-score values, listed per item
measurement label: composite z-score

compound=NCCCCCCNC(=O)[C@@H]1C[C@@H]2C(=O)N[C@@H](CCCCN)C(=O)N2[C@@H]1c1ccc(O)cc1 recorded_measurement=-0.0431
compound="CC(C)c1ccc(NN2C(C(O)c3ccc(C#N)cc3)C=CC3C(=O)N(c4ccccc4)C(=O)C32)cc1 (stereo unspecified)" recorded_measurement=0.33
compound="COC(=O)C1=CC(CCCO)=CC(c2cccs2)N(Cc2cccc(OC(F)(F)F)c2)C=C1C(=O)OC (stereo unspecified)" recorded_measurement=0.208
compound=CCCC=C(CCC)[C@@H](NC(=O)C(C)(C)C)c1ccc(C(=O)OC)cc1 recorded_measurement=0.25
compound=[N-]=[N+]=NCc1ccccc1C[C@@]1(C(N)=O)N=C(c2ccc(OCCCO)cc2)O[C@@H]1c1ccccc1 recorded_measurement=0.0762
compound=CC[C@@H]1C=C(C(=O)O)[C@H](c2ccc(C#N)cc2)N1S(=O)(=O)c1ccc(C)cc1 recorded_measurement=-0.0077
compound=CCCC[C@@H](O)C1=C(COc2ccccc2)C[C@H]2C(=O)N(Cc3ccccc3)C(=O)[C@H]2[C@H]1CO recorded_measurement=-0.287
compound=CC1=C2[C@@H](CCc3ccccc3)OB(O)C[C@@H]2[C@@H]2C(=O)N(C)C(=O)[C@@H]2C1 recorded_measurement=0.248
compound="O=C(Cc1ccccc1)[C@H]1C2C=CCCC(c3ccccc3)=C2CN1Cc1ccccc1 (stereo partly specified)" recorded_measurement=-0.166
compound="C=CCC(OC(C)=O)[C@@H]1[C@@H](N(Cc2ccc(-c3cccc(C(F)(F)F)c3)o2)C(=O)c2ccc(-c3ccccc3)cc2)c2cc(OCCCO)ccc2N1C(=O)Cc1ccc2ccccc2c1 (stereo partly specified)" recorded_measurement=-0.149
compound=CC(C)N1C(=O)c2ccccc2[C@@H](C(=O)NCCN2CCOCC2)[C@@H]1c1ccc(CO)cc1 recorded_measurement=-0.313
compound="CCC1=C2CN(Cc3ccccc3)[C@@H](C(=O)Cc3ccccc3)C2C=CCC1 (stereo partly specified)" recorded_measurement=0.0293
compound=[N-]=[N+]=Nc1ccccc1C[C@@]1(C(=O)NCCN2CCOCC2)N=C(c2ccc(OCCCO)cc2)O[C@@H]1c1ccccc1N=[N+]=[N-] recorded_measurement=0.351
compound=O=C1O[C@@H](c2ccccc2)[C@@H](c2ccccc2)N2[C@@H](c3ccc(O)cc3)[C@]3(C(=O)Nc4ccc(C#CCCO)cc43)[C@@H](C(=O)N3CCN(c4ncccn4)CC3)[C@H]12 recorded_measurement=0.148
compound="Cc1cc(C)c(C(O)C2C=CC3C(=O)N(c4ccccc4)C(=O)C3N2Nc2ccccc2F)c(C)c1 (stereo unspecified)" recorded_measurement=0.0602
compound=C=CCNC(=O)[C@@H]1[C@H]2C(=O)O[C@H](c3ccccc3)[C@H](c3ccccc3)N2[C@H](c2ccc(O)cc2)[C@@]12C(=O)N(C(=O)OCCOC)c1ccc(C#CC3=CCCCC3)cc12 recorded_measurement=0.138
